Origin of measurements: PubChem BioAssay AID504731

- System: mouse liver microsomes, T1/2, LC-MS/MS
- ASSAY TEXT: Allosteric/Competitive Inhibitors of Caspase 1: Metabolic Stability Profiling
- ASSAY CONDITIONS: at 1 µM; stronger effect = higher value
QUANTITY: half-life

Query: # get_value(readout='half-life', item= CC(C)(C)[C@H](NC(=O)c1ccc(N)c(Cl)c1)C(=O)N1CCC[C@H]1C(=O)N[C@H](C#N)CC(=O)O )
Reply: 3.43 h
